Biological target: UniProt P50052
Sequence (P50052 whole entry): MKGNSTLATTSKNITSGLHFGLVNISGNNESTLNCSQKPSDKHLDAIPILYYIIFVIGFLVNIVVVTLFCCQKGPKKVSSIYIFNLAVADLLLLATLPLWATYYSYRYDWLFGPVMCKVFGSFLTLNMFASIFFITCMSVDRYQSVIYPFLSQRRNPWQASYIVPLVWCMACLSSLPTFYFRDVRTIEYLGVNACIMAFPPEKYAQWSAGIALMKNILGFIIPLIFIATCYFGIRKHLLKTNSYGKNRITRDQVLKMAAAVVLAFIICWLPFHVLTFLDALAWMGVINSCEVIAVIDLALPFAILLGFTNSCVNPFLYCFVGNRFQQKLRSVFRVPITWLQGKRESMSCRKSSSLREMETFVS
Experiment: The compound was tested for the ability to displace 50% of totally specifically bound [125I]- Ang II from Angiotensin II receptor, type 2
pIC50: −log10 of the molar value.
readoutType: pIC50

chemicalStructure	readoutType	endpointResult
CCCCC1=NC2(CCCC2)C(=O)N1Cc1ccc(-c2ccccc2S(=O)(=O)NC(=O)c2ccccc2)cc1	pIC50	7.00
CCCC1=NC2(CCCC2)C(=O)N1Cc1ccc(-c2ccccc2S(=O)(=O)NC(=O)c2ccccc2)cc1	pIC50	6.52

---

Biological target: Type-1 angiotensin II receptor (Homo sapiens)
Sequence (P30556 whole entry): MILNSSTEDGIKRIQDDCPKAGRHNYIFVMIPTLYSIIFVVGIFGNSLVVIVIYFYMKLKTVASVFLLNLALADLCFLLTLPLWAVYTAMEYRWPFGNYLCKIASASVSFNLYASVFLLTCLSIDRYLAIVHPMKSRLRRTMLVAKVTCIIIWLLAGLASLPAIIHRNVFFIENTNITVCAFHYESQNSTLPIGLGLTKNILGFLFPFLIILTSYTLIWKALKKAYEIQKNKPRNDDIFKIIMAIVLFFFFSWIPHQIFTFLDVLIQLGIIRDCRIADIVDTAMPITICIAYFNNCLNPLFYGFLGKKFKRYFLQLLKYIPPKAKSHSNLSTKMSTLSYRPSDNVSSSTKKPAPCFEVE
Test: The compound was tested for the ability to displace 50% of totally specifically bound [125I]- Ang II from Angiotensin II receptor, type 1 site
pIC50: −log10 of the molar value.
readoutType: pIC50

chemicalStructure	endpointResult
CCCC1=NC2(CCSCC2)C(=O)N1Cc1ccc(-c2ccccc2-c2nnn[nH]2)cc1	8.70

---

Quick note: these are IC50 numbers for system: Type-1 angiotensin II receptor A (Rattus norvegicus)
Sequence (P25095 whole entry): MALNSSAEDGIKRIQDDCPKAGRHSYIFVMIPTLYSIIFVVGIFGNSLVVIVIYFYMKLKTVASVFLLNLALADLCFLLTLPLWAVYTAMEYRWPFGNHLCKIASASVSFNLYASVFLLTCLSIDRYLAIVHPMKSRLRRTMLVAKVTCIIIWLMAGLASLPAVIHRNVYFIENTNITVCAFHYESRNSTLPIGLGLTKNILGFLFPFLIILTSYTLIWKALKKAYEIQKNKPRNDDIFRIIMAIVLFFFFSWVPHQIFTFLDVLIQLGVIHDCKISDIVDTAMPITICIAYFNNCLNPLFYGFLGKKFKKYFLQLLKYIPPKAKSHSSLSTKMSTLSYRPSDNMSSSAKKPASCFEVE

chemicalStructure	IC50 (nM)
CCCCC1=NC2(CCCC2)C(=O)N1Cc1ccc(-c2ccccc2-c2nnn[nH]2)cc1	0.9
CCCC1=NC(C)(C)C(=O)N1Cc1ccc(-c2ccccc2S(=O)(=O)NC(=O)c2ccccc2)cc1	3
O=C1N(Cc2ccc(-c3ccccc3-c3nn[nH]n3)cc2)C(c2ccccc2)=NC1(c1ccccc1)c1ccccc1	1400
CCCC1=NC(c2ccccc2)(c2ccccc2)C(=O)N1Cc1ccc(-c2ccccc2-c2nn[nH]n2)cc1	300
CCCC1=NC2(CCCC2)C(=O)N1Cc1ccc(-c2ccccc2S(=O)(=O)NC(=O)c2ccccc2)cc1	9
CCCC1=NC2(CCOCC2)C(=O)N1Cc1ccc(-c2ccccc2-c2nn[nH]n2)cc1	8
